tested on: Saccharomyces cerevisiae; experiment: protein stability index of tFT-peptide fusion in wild type (PSI (0-1 scale)); higher = more stable (slower turnover); settings: genetic background: wild type
just bin them by protein stability index: bucket 1 = under 0.3, bucket 2 = from 0.3 up to 0.5, bucket 3 = 0.5 and over

        seq_text  class_label
 0  LYILRQKMNHQN     bucket 1
 1  GLDMCSVGCWFR     bucket 2
 2  RVTRLDAIYHRI     bucket 3
 3  PSLAASFERVVG     bucket 3
 4  AITLPMCYLLLR     bucket 1
 5  RVTRLDAHYFRI     bucket 3
 6  KKHKVGQKQKIN     bucket 1
 7  AITLPMCPLLQR     bucket 3
 8  ARWYVGLWRGAS     bucket 2
 9  PDKRNHVIKLLN     bucket 1
10  RLYQPLPVQFLN     bucket 1
11  GTSCGYKFRTNN     bucket 1
12  LVVPLSCVACIN     bucket 1
13  PDKRNHLIPLLN     bucket 2
14  RSLRVLLPWYFR     bucket 3
15  PSLRVLLPLYFR     bucket 1

* * *

tested on: Saccharomyces cerevisiae; test: protein stability index of tFT-peptide fusion (C-terminal peptide) (PSI (0-1 scale)); higher = more stable (slower turnover); conditions: genetic background: wild type; temperature: 30 C
Would you mind labelling by protein stability index? At or over 0.2 is True, under is False.

>>> df
       seq_text  class_label
0  RHQTDIVTATQK         True
1  LQYSKALAVICG         True
2  CIFLLMAILSLA         True
3  YYLHFRFFIYVF        False
4  GSVLWISCLIFC        False
5  ASVSVWCVSVVV        False
6  FFCSILLGIILL         True
7  GAVRRWGWVSFV        False
8  HCSRMIIIFLFL         True
9  LVFFAYLIRGAL        False

* * *

tested on: Saccharomyces cerevisiae; assay: protein stability index of tFT-peptide fusion (C-terminal peptide) (PSI (0-1 scale)); higher = more stable (slower turnover); settings: genetic background: wild type; temperature: 37 C
ATTRIBUTE_MEASURED: protein stability index

In [3]: df
Out[3]:
        seq_text  observed
 0  VGLLFGWVWSLW     0.674
 1  TPLLPPSPPPSR     0.435
 2  EWFFCLGLFRFH     0.433
 3  FLLFFVLRLLPC     0.376
 4  ASVSVWCVSVVV     0.148
 5  SRLLGVKVSLVC     0.536
 6  PFAGRLWVTSSF     0.756
 7  GACRVSSCVVVC     0.526
 8  RHQTDIVTATQK     0.704
 9  PRSLHVLSRFLP     0.712
10  CFGIFWLFARLK     0.389
11  VLFSVWFFLVLV     0.127

* * *

system: Saccharomyces cerevisiae; experiment: protein stability index of tFT-peptide fusion (C-terminal peptide) (PSI (0-1 scale)); higher = more stable (slower turnover); details: genetic background: das1 deletion; temperature: 30 C
Would you mind labelling by protein stability index? At or over 0.7 is 1, under is -1.

                                   seq_text               system_name  class_label
0    ESTTDAESKGSK [MRPL11 C-terminal 12 aa]  Saccharomyces cerevisiae           -1
1      INIQQFAALLSK [CMD1 C-terminal 12 aa]  Saccharomyces cerevisiae           -1
2      IFWLALIYNAIQ [LOH1 C-terminal 12 aa]  Saccharomyces cerevisiae           -1
3      TDLENETFIYPL [YCT1 C-terminal 12 aa]  Saccharomyces cerevisiae            1
4      EWFYEKFLGNIF [DIP5 C-terminal 12 aa]  Saccharomyces cerevisiae            1
5     STTIRAINALYS [HSP32 C-terminal 12 aa]  Saccharomyces cerevisiae           -1
6      GKTAADNIAKLY [OSM1 C-terminal 12 aa]  Saccharomyces cerevisiae           -1
7     LAYPACLACQAS [VPS69 C-terminal 12 aa]  Saccharomyces cerevisiae           -1
8     YCFYINCIMNRR [RRT15 C-terminal 12 aa]  Saccharomyces cerevisiae           -1
9  KLEKLKAEKTRR [YDL085C-A C-terminal 12 aa]  Saccharomyces cerevisiae           -1
